Biological target: T1, PDZRN3_1, Q9UPQ7
T1 sequence (Q9UPQ7 244-349, limits assumed, looked up): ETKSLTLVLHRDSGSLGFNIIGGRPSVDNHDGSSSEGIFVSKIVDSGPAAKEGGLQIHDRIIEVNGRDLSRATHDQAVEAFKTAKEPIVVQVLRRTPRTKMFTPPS
Test: holdup assay
Set-up: key: below the threshold = too weak to quantify, mostly under pKd 3.1 to 4
Details: plain residues with an end cap or a label only (N-terminal biotin on a linker: ado-ado)
Classify as follows. Reported pKd greater than or equal to 4: T. Reported pKd below: F.

Task: Has PRISRSQSEL [CCDC134, Q9H6E4] a recorded pKd greater than or equal to 4?
Result: F

Task: Has PDGQCTVTEV [RNF146, Q9NTX7] a recorded pKd greater than or equal to 4?
Result: F

Task: Has QSARLWETSI [ADAM22, Q9P0K1] a recorded pKd greater than or equal to 4?
Result: T

Task: Has QGPVETESVV [SLC45A4, Q5BKX6] a recorded pKd greater than or equal to 4?
Result: F

Task: Has RHGSCVETSL [TMEM151B, Q8IW70] a recorded pKd greater than or equal to 4?
Result: T
